Catalogue of LC retention time readings, one per entry.
measurement.notes: Agilent ZORBAX 300 SB-C18, 150 × 1 mm, 3.5 µm; A: water + 0.01% heptafluorobutyric acid; B: acetonitrile + 0.01% heptafluorobutyric acid; gradient (min/%B) 0/0 100/90
protocol.conditions: stereoisomer not certain
measure: LC retention time (min)

compound=CN(Cc1ccccc1)C(=O)c1ccco1 meas_value=11.8
compound="Cc1cn(C2CC(O)C(CO)O2)c(=O)[nH]c1=O (stereo not given)" meas_value=8.97
compound=CCn1cc(CCC(=O)O)c2ccccc21 meas_value=12.4
compound="CC1CCCN(CC(O)CN)C1 (stereo not given)" meas_value=7.32
compound=CCNC(=S)Nc1ccccc1N meas_value=8.14
compound=CC(=O)N(C)c1ccc(O)cc1 meas_value=7.68
compound="NC(=O)CC(NC(N)=O)C(=O)O (stereo not given)" meas_value=1.47
compound=CN(C)CCN meas_value=6.51
compound=NC(=S)CCc1ccccn1 meas_value=6.55
compound=Cc1ccc(N(C)C)cc1 meas_value=8.12

###

measurement.notes: Agilent ZORBAX 300 SB-C18, 150 × 1 mm, 3.5 µm; A: water + 0.01% heptafluorobutyric acid; B: acetonitrile + 0.01% heptafluorobutyric acid; gradient (min/%B) 0/0 100/90
protocol.conditions: stereoisomer not certain
Catalogue of LC retention time readings, one per entry.
measure: LC retention time

compound=CCNC1(c2cccs2)CCCCC1 meas_value="9.19 min"
compound=CNc1ccccc1C meas_value="8.19 min"
compound=COc1ccccc1CC(=O)Nc1cccc(C)c1 meas_value="13.9 min"
compound=CCNCCN(C)C meas_value="7.47 min"
compound="CC1Cc2ccccc2N1 (stereo not given)" meas_value="7.66 min"
compound="CCN1C(=O)CC(N2CCC(n3c(=O)[nH]c4ccccc43)CC2)C1=O (stereo not given)" meas_value="8.81 min"
compound=Nc1ccccc1CO meas_value="6.62 min"
compound=CNC1CCCCC1 meas_value="7.45 min"
compound=CCOC(=O)C(=CNc1ccccc1N)C(=O)OCC meas_value="12.8 min"
compound=c1ccc(CN2CCCC2)nc1 meas_value="7.01 min"
compound=C#CC(C)(C)NC(=O)NC(C)(C)C#C meas_value="9.95 min"
compound=COc1ccccc1-n1c(=O)n2n(c1=O)CCCC2 meas_value="9.12 min"
compound=O=C(CCC1CCCC1)N1CCN(C(=O)COc2ccccc2)CC1 meas_value="13.7 min"
compound=CC(=O)C=CC=C(C)CCC=C(C)C meas_value="17.1 min"
compound="O=C1CC(Nc2ccc3ccccc3c2)C(=O)N1c1cccc2ccccc12 (stereo not given)" meas_value="15.7 min"
compound=Cc1cc(=O)[nH]c2c(C)c(N)ccc12 meas_value="8.42 min"
compound="CCC(C)C(NC(C)=O)C(=O)O (stereo not given)" meas_value="7.75 min"
compound=CCCCCCCCNCCCCCCCC meas_value="14.8 min"
compound="CC(C)CC1(C)NC(=S)N(c2ccccc2)N1 (stereo not given)" meas_value="14.1 min"
compound=C#CC1(N)CCCCC1 meas_value="7.77 min"
compound=CCn1c(=O)n(CC)c2cc(C=O)ccc21 meas_value="10.2 min"
compound=Cn1c(C(=O)O)cc2ccccc21 meas_value="11.4 min"
compound=Cc1cncc(C)c1 meas_value="6.88 min"
compound=O=C1CCCCCN1CP(=O)(O)CCc1ccccc1 meas_value="9 min"
compound=CC(=O)Nc1ccc(O)cc1 meas_value="6.65 min"
compound="COC(=O)CCC1CCCNC1 (stereo not given)" meas_value="7.49 min"
compound=CCOc1ccccc1CNC(N)=O meas_value="9.32 min"
compound="CC1CCN(C(=O)C2CCCNC2)CC1 (stereo not given)" meas_value="8.27 min"
compound=Cc1cccc(Nc2cc(C)nc3ccccc23)c1 meas_value="10.4 min"
compound=COc1ccc(CNCc2ccc(C(C)C)cc2)cc1 meas_value="11.5 min"

###

measurement.notes: Agilent ZORBAX 300 SB-C18, 150 × 1 mm, 3.5 µm; A: water + 0.01% heptafluorobutyric acid; B: acetonitrile + 0.01% heptafluorobutyric acid; gradient (min/%B) 0/0 100/90
protocol.conditions: stereoisomer not certain
Hi! Just check whether LC retention time is below 9 min. Below gives Yes, equal or above gives No.

compound=O=C1Cc2ccccc2N1 class_assignment=Yes
compound=CCOC(=O)C1(c2ccccc2)CCN(CCc2ccc(N)cc2)CC1 class_assignment=No
compound=Cc1ccc(N)cc1 class_assignment=Yes
compound=O=C(CN1CCN(C(=O)CNC2CCCCC2)CC1)NC1CCCCC1 class_assignment=No
compound=Cc1nc(=S)c2ccccc2[nH]1 class_assignment=No
compound=c1ccc2ncncc2c1 class_assignment=Yes
compound=CCCCCCN1CNC(=S)NC1 class_assignment=No
compound=O=c1[nH]c(-c2ccccc2)nc2ccccc12 class_assignment=No
compound=CC1(C)CC(NC(=O)C(=O)NCCc2ccccc2)CC(C)(C)N1 class_assignment=No
compound="O=C(O)C1Cc2ccccc2CN1 (centres undefined)" class_assignment=Yes
compound=c1coc(CN2CCNCC2)c1 class_assignment=Yes
compound=Cc1ccc(-n2ccnc2)cc1 class_assignment=Yes
compound=CCCCCCCCCN(C)C class_assignment=No

###

measurement.notes: Agilent ZORBAX 300 SB-C18, 150 × 1 mm, 3.5 µm; A: water + 0.01% heptafluorobutyric acid; B: acetonitrile + 0.01% heptafluorobutyric acid; gradient (min/%B) 0/0 100/90
protocol.conditions: stereoisomer not certain
Hi! Just check whether LC retention time is below 9 min. Below gives t, equal or above gives f.

molecule=S=C(NCc1ccccc1)NCc1ccc2[nH]c3c(c2c1)CCCC3 class_assignment=f
molecule=CCCCCCC(N)=O class_assignment=f
molecule=CC1=C(C(=O)c2ccccc2)CC(C(=O)c2ccccc2)=C(C)N1 class_assignment=f
molecule=Cc1ccc(C)c2c1ccn2C class_assignment=f
molecule=CCOc1ccc(Cc2c(O)n(-c3ccc(CC)cc3)c(=O)[nH]c2=O)cc1 class_assignment=f
molecule=NCCn1cnc2ccccc2c1=O class_assignment=t
molecule=S=C(Nc1ccccn1)NC1CCCCC1 class_assignment=f
molecule=CC1(C)CC(NCc2ccncc2)CC(C)(C)N1 class_assignment=t
molecule=CCN(CC)c1nc(-c2ccncc2)nc2ccccc12 class_assignment=f
molecule="CC1(C)CC(=O)C=C(NCC2NCCc3ccccc32)C1 (stereo not given)" class_assignment=t
molecule=C=CCC1(CC=C)CNCCN1 class_assignment=t
molecule=Cc1ccc(-n2cnnn2)nc1 class_assignment=f
molecule=Cc1ccc2c(c1N)C(=O)c1ccccc1C2=O class_assignment=f
molecule="CN1C2CCC1C(C(=O)O)C(OC(=O)c1ccccc1)C2 (stereo not given)" class_assignment=t
molecule="CC(=O)NC1CCN(C)C2CCCCC12 (stereo not given)" class_assignment=t

###

Catalogue of LC retention time readings, one per entry.
measurement.notes: Agilent ZORBAX 300 SB-C18, 150 × 1 mm, 3.5 µm; A: water + 0.01% heptafluorobutyric acid; B: acetonitrile + 0.01% heptafluorobutyric acid; gradient (min/%B) 0/0 100/90
protocol.conditions: stereoisomer not certain
measure: LC retention time (min)

compound=S=c1nccc(-c2ccc3ccccc3c2)[nH]1 meas_value=10.6
compound="C=CCC1(C(C)CCC)C(=O)NC(=O)NC1=O (stereo not given)" meas_value=11.4
compound=Cc1ccc(C)n1-c1ccc(C(=O)O)cc1 meas_value=13
compound=CC1=NCC(=O)N1c1cccc(N)c1 meas_value=7.1
compound="COc1ccc(C2CC(=O)Nc3cc4c(cc32)OCO4)cc1 (stereo not given)" meas_value=11.9
compound="Cc1ccc(NC2=NCC(C)S2)cc1C (stereo not given)" meas_value=9.88
compound=Cc1ccccc1Nc1nc(Nc2ccccc2C)c2ccccc2n1 meas_value=12.5
compound=c1ccc(SCSc2ccccn2)nc1 meas_value=13.7
compound=Nc1ccc2nc(-c3ccccc3)oc(=O)c2c1 meas_value=11.2
compound="CC(N)Cc1ccc2oc3ccccc3c2c1 (stereo not given)" meas_value=10.1
compound=O=C(NN=CC=NNC(=O)c1ccccn1)c1ccccn1 meas_value=8.62
compound=CCCc1ccc(N)cc1 meas_value=9.04
compound=COc1ccc(N)c(C)c1C meas_value=8.59
compound=c1cncc(-c2cc3ccccc3[nH]2)c1 meas_value=10.1
compound="CNC(C)C(=O)c1ccccc1 (stereo not given)" meas_value=8.4

###

measurement.notes: Agilent ZORBAX 300 SB-C18, 150 × 1 mm, 3.5 µm; A: water + 0.01% heptafluorobutyric acid; B: acetonitrile + 0.01% heptafluorobutyric acid; gradient (min/%B) 0/0 100/90
protocol.conditions: stereoisomer not certain
Hi! Just check whether LC retention time is below 8 min. Below gives 1 (yes), equal or above gives 0 (no).

compound=Cc1ccccc1C(=O)NC1CC(C)(C)NC(C)(C)C1 class_assignment="0 (no)"
compound=Cc1nncn1-c1ccccc1 class_assignment="0 (no)"
compound=Cn1cccc1CC(=O)NN=CC=Cc1ccccc1 class_assignment="0 (no)"
compound="S=C1N=C2CCCCC2C2(CCCCC2)N1 (stereo not drawn)" class_assignment="0 (no)"
compound="CN1C2CCC1CC(OC(=O)C(CO)c1ccccc1)C2 (stereo not drawn)" class_assignment="0 (no)"
compound=CCCCCNC=O class_assignment="0 (no)"
compound=C[n+]1cccc(C(=O)O)c1 class_assignment="1 (yes)"
compound=O=C(O)c1c[nH]c(=O)[nH]1 class_assignment="1 (yes)"
